Hey, just so you know, these numbers are from ChEMBL document CHEMBL4673340.

Listing of recorded IC50 by entry.
target: Poly [ADP-ribose] polymerase 2 (Homo sapiens); experiment: Inhibition of PARP-2 (unknown origin) pre-incubated for 30 mins before addition of activated DNA and NAD by chemiluminescent assay
Sequence (Q9UGN5 whole entry): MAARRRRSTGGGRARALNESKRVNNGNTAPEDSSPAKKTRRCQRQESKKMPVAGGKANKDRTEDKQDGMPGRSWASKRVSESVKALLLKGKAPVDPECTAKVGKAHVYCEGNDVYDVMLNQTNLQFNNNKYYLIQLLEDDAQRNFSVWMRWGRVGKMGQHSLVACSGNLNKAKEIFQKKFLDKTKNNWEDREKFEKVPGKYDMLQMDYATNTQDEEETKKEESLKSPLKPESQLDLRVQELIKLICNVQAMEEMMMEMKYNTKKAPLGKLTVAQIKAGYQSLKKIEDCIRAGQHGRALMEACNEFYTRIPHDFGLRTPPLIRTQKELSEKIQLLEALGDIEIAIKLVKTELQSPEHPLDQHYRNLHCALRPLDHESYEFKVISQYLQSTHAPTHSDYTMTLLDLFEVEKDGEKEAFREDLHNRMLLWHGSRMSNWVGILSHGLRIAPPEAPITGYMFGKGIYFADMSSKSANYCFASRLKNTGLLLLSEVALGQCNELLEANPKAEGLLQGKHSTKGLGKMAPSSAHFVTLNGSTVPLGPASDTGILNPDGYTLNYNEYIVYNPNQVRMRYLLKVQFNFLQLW
endpoint-label: IC50

INSERT INTO results (molecule, endpoint_label, result) VALUES
  ('O=C1NN=C2CCCCc3[nH]c4cc(F)cc1c4c32', 'IC50', '0.7 nM'),
  ('C[C@]12CCCN1CC1=NNC(=O)c3cc(F)cc4[nH]c2c1c34', 'IC50', '0.9 nM'),
  ('CC(C)C1CC2=NNC(=O)c3cc(F)cc4[nH]c(c2c34)C1 (configuration not stated)', 'IC50', '0.7 nM'),
  ('CC1CC2=NNC(=O)c3cc(F)cc4[nH]c(c2c34)C1 (configuration not stated)', 'IC50', '1.3 nM'),
  ('O=C1NN=C2CC(c3ccccc3)Cc3[nH]c4cc(F)cc1c4c32 (configuration not stated)', 'IC50', '1.8 nM'),
  ('CN(C)CCn1c2c3c4c(cc(F)cc41)C(=O)NN=C3CC(C)(C)C2', 'IC50', '0.3 nM'),
  ('CN(C)CCn1c2c3c4c(cccc41)C(=O)NN=C3CC(C)(C)C2', 'IC50', '0.3 nM');

---

test: Oral bioavailability in Beagle dog at 2 mg/kg by LC-MS/MS analysis; type: ADME, organism-based, Canis lupus familiaris; conditions: in vivo
endpoint-label: bioavailability (%)

INSERT INTO measurements (smiles_entry, endpoint_label, unit_name, result) VALUES
  ('C[C@]12CCCN1CC1=NNC(=O)c3cc(F)cc4[nH]c2c1c34', 'bioavailability', '%', 72.6);

---

molecular target: Solute carrier organic anion transporter family member 1B1 (Homo sapiens, UniProt Q9Y6L6)
Sequence (Q9Y6L6 whole entry): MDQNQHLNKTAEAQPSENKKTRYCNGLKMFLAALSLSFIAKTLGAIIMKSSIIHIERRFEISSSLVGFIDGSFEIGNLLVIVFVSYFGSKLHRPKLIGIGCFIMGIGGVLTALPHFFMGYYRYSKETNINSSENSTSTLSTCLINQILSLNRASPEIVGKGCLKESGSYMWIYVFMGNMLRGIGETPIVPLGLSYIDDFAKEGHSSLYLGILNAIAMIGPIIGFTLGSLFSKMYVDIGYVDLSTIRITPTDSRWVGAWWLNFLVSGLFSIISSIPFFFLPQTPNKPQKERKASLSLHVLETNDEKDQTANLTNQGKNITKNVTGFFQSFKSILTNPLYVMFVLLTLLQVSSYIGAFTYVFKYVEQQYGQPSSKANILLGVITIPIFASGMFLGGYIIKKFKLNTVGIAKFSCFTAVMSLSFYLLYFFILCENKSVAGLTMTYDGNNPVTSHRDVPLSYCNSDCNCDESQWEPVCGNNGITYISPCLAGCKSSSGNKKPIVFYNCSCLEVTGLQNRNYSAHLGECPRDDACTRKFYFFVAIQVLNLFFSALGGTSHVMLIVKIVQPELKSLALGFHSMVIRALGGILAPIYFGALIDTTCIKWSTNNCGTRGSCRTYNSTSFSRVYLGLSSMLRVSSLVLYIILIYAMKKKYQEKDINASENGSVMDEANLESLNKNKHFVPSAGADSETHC
endpoint-label: IC50 (µM)

INSERT INTO assay_data (smiles_entry, result) VALUES
  ('C[C@]12CCCN1CC1=NNC(=O)c3cc(F)cc4[nH]c2c1c34', 19.4);

---

biological target: hERG (KCNH2) (Homo sapiens, UniProt Q12809); test: Inhibition of human ERG activity at 20 uM by functional cellular assay
Sequence (Q12809 whole entry): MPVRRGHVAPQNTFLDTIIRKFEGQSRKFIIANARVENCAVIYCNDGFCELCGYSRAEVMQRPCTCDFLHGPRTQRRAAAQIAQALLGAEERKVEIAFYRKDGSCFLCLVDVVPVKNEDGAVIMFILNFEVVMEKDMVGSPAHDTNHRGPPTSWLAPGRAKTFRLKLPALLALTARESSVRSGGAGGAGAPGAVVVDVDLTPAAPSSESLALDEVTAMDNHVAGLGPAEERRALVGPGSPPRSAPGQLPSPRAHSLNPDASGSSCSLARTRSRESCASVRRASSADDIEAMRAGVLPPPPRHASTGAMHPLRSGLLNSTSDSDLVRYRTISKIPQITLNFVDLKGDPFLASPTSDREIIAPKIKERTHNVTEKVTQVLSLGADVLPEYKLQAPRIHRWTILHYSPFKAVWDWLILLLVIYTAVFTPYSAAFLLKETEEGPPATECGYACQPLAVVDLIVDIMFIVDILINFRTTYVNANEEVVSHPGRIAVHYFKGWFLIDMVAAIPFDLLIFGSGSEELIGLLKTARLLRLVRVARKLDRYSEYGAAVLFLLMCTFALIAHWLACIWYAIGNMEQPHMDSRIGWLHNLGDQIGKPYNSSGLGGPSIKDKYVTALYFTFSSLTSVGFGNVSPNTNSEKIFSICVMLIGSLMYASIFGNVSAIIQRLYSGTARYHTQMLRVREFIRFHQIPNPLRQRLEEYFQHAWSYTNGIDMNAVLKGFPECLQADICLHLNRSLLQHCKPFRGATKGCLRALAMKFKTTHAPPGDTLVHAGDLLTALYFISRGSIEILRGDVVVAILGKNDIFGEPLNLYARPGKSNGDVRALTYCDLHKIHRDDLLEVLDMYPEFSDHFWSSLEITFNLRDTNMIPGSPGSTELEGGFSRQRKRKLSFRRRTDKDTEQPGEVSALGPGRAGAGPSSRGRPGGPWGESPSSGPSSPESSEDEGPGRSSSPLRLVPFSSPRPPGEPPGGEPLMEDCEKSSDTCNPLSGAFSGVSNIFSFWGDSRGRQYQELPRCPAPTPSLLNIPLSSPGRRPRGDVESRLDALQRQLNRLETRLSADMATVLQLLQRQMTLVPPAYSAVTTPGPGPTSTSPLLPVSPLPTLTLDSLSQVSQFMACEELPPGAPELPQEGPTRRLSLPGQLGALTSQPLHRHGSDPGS
Rule: YES for inhibition at 20 µM not less than 50%, NO for anything less.

INSERT INTO results (smiles_entry, group) VALUES
  ('CC1(C)CC2=NNC(=O)c3cccc4c3c2c(n4CCN2CCCCC2)C1', 'YES'),
  ('O=C1NN=C2CN(C(=O)C3CC3)Cc3[nH]c4cccc1c4c32', 'NO'),
  ('CN(C)CCn1c2c3c4c(cc(F)cc41)C(=O)NN=C3CC(C)(C)C2', 'YES'),
  ('CN(C)CCn1c2c3c4c(cccc41)C(=O)NN=C3CC(C)(C)C2', 'YES');

---

assay: Tmax in Sprague-Dawley rat at 5 mg/kg, po by LC-MS/MS analysis; details: in vivo
endpoint-label: Tmax

INSERT INTO measurements (smiles_entry, endpoint_label, result) VALUES
  ('C[C@]12CCCN1CC1=NNC(=O)c3cc(F)cc4[nH]c2c1c34', 'Tmax', '1 h');

---

test: Drug level in C57BL/6 mouse plasma at 10 mg/kg, po after 2 hrs; type: ADME, organism-based
endpoint-label: concentration at 2 h (ng/mL)

INSERT INTO results (molecule, endpoint_label, result) VALUES
  ('C[C@]12CCCN1CC1=NNC(=O)c3cc(F)cc4[nH]c2c1c34 [PAMIPARIB]', 'concentration at 2 h', 1330);

---

assay: Volume of distribution at steady state in Beagle dog at 1 mg/kg, iv by LC-MS/MS analysis; format: ADME, organism-based, Canis lupus familiaris; settings: in vivo, read-out: Vdss
endpoint-label: Vd (L/kg)

INSERT INTO assay_data (compound, endpoint_label, result) VALUES
  ('C[C@]12CCCN1CC1=NNC(=O)c3cc(F)cc4[nH]c2c1c34 [PAMIPARIB]', 'Vd', 2.09);

---

Listing of recorded pIC50 by entry.
target: Poly [ADP-ribose] polymerase 1 (Homo sapiens); experiment: Inhibition of human PARP-1 catalytic domain (662 to 1011 residues) expressed in Escherichia coli BL21(DE3) cells pre-incubated for 30 mins before addition of activated DNA and NAD by fluorescence based assay
Sequence (P09874 whole entry, the tested form may be a part): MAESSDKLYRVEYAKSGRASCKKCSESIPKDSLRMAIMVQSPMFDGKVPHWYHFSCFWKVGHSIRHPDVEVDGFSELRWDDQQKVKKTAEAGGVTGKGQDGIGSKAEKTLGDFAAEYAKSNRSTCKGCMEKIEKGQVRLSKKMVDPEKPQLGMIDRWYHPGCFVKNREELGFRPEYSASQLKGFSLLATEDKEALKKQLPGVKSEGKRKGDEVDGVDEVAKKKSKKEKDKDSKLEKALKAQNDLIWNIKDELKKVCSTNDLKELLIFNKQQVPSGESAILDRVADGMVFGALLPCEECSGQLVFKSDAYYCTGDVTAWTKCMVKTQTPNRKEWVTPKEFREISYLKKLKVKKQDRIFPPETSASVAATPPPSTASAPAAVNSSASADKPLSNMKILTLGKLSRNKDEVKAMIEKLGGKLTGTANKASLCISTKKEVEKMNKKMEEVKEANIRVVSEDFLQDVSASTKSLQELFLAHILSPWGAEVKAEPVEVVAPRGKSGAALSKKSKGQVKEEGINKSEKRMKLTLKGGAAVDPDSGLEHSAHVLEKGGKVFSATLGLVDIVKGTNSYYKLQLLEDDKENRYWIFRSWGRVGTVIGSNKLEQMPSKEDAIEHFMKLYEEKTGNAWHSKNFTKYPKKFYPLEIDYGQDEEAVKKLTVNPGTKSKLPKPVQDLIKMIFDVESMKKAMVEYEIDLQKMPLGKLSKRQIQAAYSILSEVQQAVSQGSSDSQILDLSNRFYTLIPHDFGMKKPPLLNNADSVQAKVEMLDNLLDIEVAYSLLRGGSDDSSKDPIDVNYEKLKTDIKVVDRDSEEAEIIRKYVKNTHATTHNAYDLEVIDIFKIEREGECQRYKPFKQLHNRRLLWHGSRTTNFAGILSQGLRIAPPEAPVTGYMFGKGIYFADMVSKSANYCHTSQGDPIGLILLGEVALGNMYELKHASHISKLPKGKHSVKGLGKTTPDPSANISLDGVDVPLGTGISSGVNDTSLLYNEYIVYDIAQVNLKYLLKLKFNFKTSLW
pIC50: −log10 of the molar value.
endpoint-label: pIC50

INSERT INTO results (compound, assayed_target, endpoint_label, result) VALUES
  ('CC1CC2=NNC(=O)c3cc(F)cc4[nH]c(c2c34)C1 (configuration not stated)', 'Poly [ADP-ribose] polymerase 1 (Homo sapiens)', 'pIC50', 8.31),
  ('O=C1NN=C2CN(C(=O)[C@@H]3CCCN3)Cc3[nH]c4cc(F)cc1c4c32', 'Poly [ADP-ribose] polymerase 1 (Homo sapiens)', 'pIC50', 8.18),
  ('O=C1NN=C2CN(S(=O)(=O)C3CC3)Cc3[nH]c4cc(F)cc1c4c32', 'Poly [ADP-ribose] polymerase 1 (Homo sapiens)', 'pIC50', 8.10),
  ('CC1(C)C(=O)C2=NNC(=O)c3cc(F)cc4[nH]c(c2c34)C1=O', 'Poly [ADP-ribose] polymerase 1 (Homo sapiens)', 'pIC50', 7.88),
  ('CC12CCCN1Cc1[nH]c3cc(F)cc4c3c1C2=NNC4=O (configuration not stated)', 'Poly [ADP-ribose] polymerase 1 (Homo sapiens)', 'pIC50', 7.14),
  ('CC1(C)C(C(=O)N2CC3=NNC(=O)c4cc(F)cc5[nH]c(c3c45)C2)C1(C)C', 'Poly [ADP-ribose] polymerase 1 (Homo sapiens)', 'pIC50', 7.75),
  ('NC1(C(=O)N2CC3=NNC(=O)c4cc(F)cc5[nH]c(c3c45)C2)CC1', 'Poly [ADP-ribose] polymerase 1 (Homo sapiens)', 'pIC50', 8.00),
  ('O=C1NN=C2CN(C(=O)C3(O)CC3)Cc3[nH]c4cc(F)cc1c4c32', 'Poly [ADP-ribose] polymerase 1 (Homo sapiens)', 'pIC50', 8.33),
  ('CC1(C)CCc2[nH]c3cc(F)cc4c3c2C1=NNC4=O', 'Poly [ADP-ribose] polymerase 1 (Homo sapiens)', 'pIC50', 7.54),
  ('CNCCn1c2c3c4c(cccc41)C(=O)NN=C3CC(C)(C)C2', 'Poly [ADP-ribose] polymerase 1 (Homo sapiens)', 'pIC50', 8.15),
  ('CC1(C(=O)N2CC3=NNC(=O)c4cc(F)cc5[nH]c(c3c45)C2)CC1', 'Poly [ADP-ribose] polymerase 1 (Homo sapiens)', 'pIC50', 8.01),
  ('O=C1NN=C2CN(C(=O)C3(c4ccccc4)CC3)Cc3[nH]c4cc(F)cc1c4c32', 'Poly [ADP-ribose] polymerase 1 (Homo sapiens)', 'pIC50', 7.55);

---

target: Cytochrome P450 1A2 (Homo sapiens, UniProt P05177)
Sequence (P05177 whole entry): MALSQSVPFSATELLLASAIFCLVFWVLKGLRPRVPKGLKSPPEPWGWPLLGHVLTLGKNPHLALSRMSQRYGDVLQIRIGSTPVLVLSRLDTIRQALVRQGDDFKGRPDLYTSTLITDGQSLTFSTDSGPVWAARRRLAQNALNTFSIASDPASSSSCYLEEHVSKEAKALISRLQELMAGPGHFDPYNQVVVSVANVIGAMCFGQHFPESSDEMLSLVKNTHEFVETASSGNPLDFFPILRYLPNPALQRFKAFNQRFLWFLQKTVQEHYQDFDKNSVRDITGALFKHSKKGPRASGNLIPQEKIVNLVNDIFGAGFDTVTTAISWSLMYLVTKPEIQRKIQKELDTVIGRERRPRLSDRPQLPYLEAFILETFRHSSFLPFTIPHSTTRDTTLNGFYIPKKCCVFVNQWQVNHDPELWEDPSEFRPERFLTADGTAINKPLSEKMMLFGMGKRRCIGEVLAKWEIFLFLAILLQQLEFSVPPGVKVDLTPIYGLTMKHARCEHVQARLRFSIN
endpoint-label: IC50

INSERT INTO results (smiles_entry, assayed_target, endpoint_label, result) VALUES
  ('C[C@]12CCCN1CC1=NNC(=O)c3cc(F)cc4[nH]c2c1c34', 'Cytochrome P450 1A2 (Homo sapiens, UniProt P05177)', 'IC50', '> 10 µM');

---

test: Clearance in rat liver microsomes; format: ADME, Microsome
endpoint-label: microsomal CLint (µL/min/mg)

INSERT INTO results (smiles_entry, result) VALUES
  ('C[C@]12CCCN1CC1=NNC(=O)c3cc(F)cc4[nH]c2c1c34', 7.2);

---

assay: Half life in ICR mouse at 10 mg/kg, po by LC-MS/MS analysis; assay type: ADME, organism-based; details: in vivo
endpoint-label: half-life (h)

INSERT INTO measurements (compound, unit_name, result) VALUES
  ('C[C@]12CCCN1CC1=NNC(=O)c3cc(F)cc4[nH]c2c1c34 [PAMIPARIB]', 'h', 3.16);

---

test: Half life in Sprague-Dawley rat at 2 mg/kg, iv by LC-MS/MS analysis; type: ADME, organism-based; conditions: in vivo
endpoint-label: half-life (h)

INSERT INTO assay_data (smiles_entry, result) VALUES
  ('C[C@]12CCCN1CC1=NNC(=O)c3cc(F)cc4[nH]c2c1c34', 5.3);

---

Molecular target: Solute carrier organic anion transporter family member 1B3 (Homo sapiens)
Sequence (Q9NPD5 whole entry): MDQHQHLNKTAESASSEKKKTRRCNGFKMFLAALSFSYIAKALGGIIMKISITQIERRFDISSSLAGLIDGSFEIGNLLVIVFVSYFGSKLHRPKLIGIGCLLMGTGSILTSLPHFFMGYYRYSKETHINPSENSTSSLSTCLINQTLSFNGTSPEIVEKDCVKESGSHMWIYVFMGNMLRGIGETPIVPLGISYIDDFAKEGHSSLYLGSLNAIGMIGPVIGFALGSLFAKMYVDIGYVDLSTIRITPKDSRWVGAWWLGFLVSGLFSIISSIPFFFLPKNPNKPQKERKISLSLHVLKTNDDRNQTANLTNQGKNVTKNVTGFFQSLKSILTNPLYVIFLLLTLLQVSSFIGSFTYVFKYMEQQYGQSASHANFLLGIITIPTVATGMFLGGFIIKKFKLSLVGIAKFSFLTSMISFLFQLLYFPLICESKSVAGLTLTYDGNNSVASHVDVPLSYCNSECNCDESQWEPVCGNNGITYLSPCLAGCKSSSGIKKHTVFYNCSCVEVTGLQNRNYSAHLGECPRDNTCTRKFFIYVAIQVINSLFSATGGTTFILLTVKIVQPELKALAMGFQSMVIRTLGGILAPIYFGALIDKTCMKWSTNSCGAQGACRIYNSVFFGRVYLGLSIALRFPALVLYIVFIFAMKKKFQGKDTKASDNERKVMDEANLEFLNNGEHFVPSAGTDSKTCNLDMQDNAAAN
pIC50: −log10 of the molar value.
endpoint-label: pIC50

INSERT INTO measurements (smiles_entry, result) VALUES
  ('C[C@]12CCCN1CC1=NNC(=O)c3cc(F)cc4[nH]c2c1c34', 4.71);
